Listed compounds paired with reported TGI
Test system: HT29 colon
experimentSummary: NCI tumour cell line growth inhibition, 48 h
measurementLabel: TGI

> print(dat)
                                   compound  assaysystem  valueobserved
1  COc1ccc(NC2Oc3cc4c(cc3C(c3cc(OC)c(O)c(OC)c3)C2C)OCO4)cc1 (centres undefined)   HT29 colon       > 100 µM
2  CN1C2CC(=O)CC1[C@@H]1OC(c3ccccc3)O[C@H]21 (some centres undefined)   HT29 colon       > 100 µM
3  Cc1cc(S(=O)(=O)Nc2nc(N)nc(N3N=CCC3C)n2)c(S)cc1Cl (centres undefined)   HT29 colon        > 10 µM
4  O=[N+]([O-])c1c(/C=N/Nc2ccccc2)oc(-c2ccc3c(c2)OCO3)c1-c1ccc2c(c1)OCO2   HT29 colon       > 100 µM

----------
System: OVCAR-3 ovarian
experimentSummary: NCI tumour cell line growth inhibition, 48 h; in the data active = GI50 below about 0.43 µM; inactive = the rest
Labels: y for active, n for inactive

compound	classAssignment
COc1cc(/C=C/c2cc(C(F)(F)F)[nH]c(=O)n2)ccc1OCc1ccccc1F	n
O=c1ccn(C2OC(CO)C(O)C2O)c(=O)[nH]1 (stereo not drawn)	n
CCOC(=O)[C@@H](C)C[C@H](Cc1ccccc1)NC(=O)c1csc([C@@H](C[C@H](C(C)C)N(C)C(=O)[C@@H](NC(=O)[C@H]2C[C@H](O[Si](C)(C)C(C)(C)C)CCN2C)C(C)C)OC(C)=O)n1	y

----------
Tested on: OVCAR-3 ovarian
experimentSummary: NCI tumour cell line growth inhibition, 48 h
measurementLabel: TGI (µM)

> print(dat)
                                   compound      assaysystem  valuequalifier  valueobserved
1            O=C(O)c1ccccc1/C=N\NC1=NCCCCN1  OVCAR-3 ovarian               >            100
2  CCN(CC)CCNc1c(OC)cc(C)c2sc3ccccc3c(=O)c12  OVCAR-3 ovarian               =           26.2
3  COC(=O)[C@@H]1N2C(=S)N(c3ccccc3)C(=O)[C@H]2SC1(C)C  OVCAR-3 ovarian               >            100
4    CC[N+](C)(CC)CCN1C(=O)c2ccccc2S1(=O)=O  OVCAR-3 ovarian               >            100
5  O=[N+]([O-])c1ccc2[nH]cc(-c3c4ccsc4cc4[nH]c5ccc([N+](=O)[O-])cc5c34)c2c1  OVCAR-3 ovarian               =           1.44
6  CCCCCCC/C=C/[C@H]1O[C@]23C(=O)C[C@@]4(C[C@@H](OC5OC(CO)C(O)C(O)C5O)C[C@@H]4[C@H]2C=C1C)OC3=O (some centres undefined)  OVCAR-3 ovarian               =           6.71
7   CC(C)n1c(=O)n(-c2ccccc2)n(C(C)(C)C)c1=O  OVCAR-3 ovarian               >            100
8  CCN(CC)CCCCC1CCN(CC(=O)N2CC(C)C(=O)Nc3ccccc32)CC1 (centres undefined)  OVCAR-3 ovarian               >            100
9  CC1CC(c2ccccc2)=Nc2ccccc2S1(=O)=O (centres undefined)  OVCAR-3 ovarian               =           32.8
